All values here come from patent US9586968B2.

- target: human Nav1.7 (Homo sapiens, UniProt Q15858)
- Sequence (Q15858 whole entry): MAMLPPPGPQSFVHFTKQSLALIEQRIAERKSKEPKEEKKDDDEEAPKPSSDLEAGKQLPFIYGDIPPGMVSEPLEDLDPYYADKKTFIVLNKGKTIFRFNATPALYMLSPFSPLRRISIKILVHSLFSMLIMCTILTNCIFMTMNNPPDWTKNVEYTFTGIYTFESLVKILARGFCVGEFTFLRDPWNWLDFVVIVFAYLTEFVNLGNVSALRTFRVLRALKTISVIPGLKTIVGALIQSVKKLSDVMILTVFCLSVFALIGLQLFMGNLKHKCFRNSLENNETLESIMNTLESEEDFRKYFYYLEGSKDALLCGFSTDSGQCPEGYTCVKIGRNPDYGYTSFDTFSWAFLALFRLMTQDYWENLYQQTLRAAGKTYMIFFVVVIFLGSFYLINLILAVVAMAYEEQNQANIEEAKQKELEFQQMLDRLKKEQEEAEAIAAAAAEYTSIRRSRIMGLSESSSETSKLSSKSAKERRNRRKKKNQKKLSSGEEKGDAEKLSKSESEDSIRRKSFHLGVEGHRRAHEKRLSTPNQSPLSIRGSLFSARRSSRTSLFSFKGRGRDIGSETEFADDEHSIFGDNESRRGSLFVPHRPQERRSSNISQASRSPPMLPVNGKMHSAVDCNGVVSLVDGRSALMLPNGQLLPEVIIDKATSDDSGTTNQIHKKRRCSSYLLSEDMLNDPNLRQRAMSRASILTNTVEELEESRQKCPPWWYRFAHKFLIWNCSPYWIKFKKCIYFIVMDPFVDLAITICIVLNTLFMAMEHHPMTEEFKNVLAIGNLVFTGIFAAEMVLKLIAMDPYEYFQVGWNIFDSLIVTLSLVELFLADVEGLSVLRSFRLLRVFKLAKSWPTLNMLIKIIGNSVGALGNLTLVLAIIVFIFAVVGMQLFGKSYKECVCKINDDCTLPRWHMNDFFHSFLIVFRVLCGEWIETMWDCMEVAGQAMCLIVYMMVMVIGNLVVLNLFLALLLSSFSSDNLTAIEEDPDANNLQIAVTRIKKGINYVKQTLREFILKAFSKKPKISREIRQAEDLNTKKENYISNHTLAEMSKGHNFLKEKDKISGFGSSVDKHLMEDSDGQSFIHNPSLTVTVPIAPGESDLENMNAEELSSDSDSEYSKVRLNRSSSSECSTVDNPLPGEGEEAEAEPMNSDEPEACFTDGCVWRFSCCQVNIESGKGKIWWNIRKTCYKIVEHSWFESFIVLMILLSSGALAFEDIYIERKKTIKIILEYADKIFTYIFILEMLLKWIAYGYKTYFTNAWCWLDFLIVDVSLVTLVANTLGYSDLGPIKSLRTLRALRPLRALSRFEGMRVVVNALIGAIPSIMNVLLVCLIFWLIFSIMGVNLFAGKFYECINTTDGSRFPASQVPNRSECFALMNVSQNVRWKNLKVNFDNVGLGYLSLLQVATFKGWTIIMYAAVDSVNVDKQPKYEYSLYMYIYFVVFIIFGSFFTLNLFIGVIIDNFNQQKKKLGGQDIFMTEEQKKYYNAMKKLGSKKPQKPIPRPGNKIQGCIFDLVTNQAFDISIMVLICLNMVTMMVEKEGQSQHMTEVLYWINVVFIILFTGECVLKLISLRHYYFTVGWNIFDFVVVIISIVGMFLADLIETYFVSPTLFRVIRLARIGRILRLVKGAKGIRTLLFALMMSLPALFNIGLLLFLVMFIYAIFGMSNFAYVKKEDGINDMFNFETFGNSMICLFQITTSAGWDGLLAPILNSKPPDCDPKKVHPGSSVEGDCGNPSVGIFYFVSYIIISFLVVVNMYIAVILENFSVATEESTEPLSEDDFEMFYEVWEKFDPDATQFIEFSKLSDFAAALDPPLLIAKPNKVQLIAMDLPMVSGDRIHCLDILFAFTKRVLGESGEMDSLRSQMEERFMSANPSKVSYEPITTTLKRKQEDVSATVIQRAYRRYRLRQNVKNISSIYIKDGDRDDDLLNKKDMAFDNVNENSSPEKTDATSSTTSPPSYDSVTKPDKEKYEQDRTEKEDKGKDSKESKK
- assayProtocol: PatchXpress automated patch-clamp, inactivated state block of Nav1.7
- testSettings: channels stably expressed in HEK 293 cells, 22° C., read-out: potency for the Nav 1.7 sodium ion channel (as measured by PatchXpress)
propertyName: IC50 (nM)

| molecule | target | assayValue |
| --- | --- | --- |
| CC1CN2CCCC2(CNc2cc(F)c(S(=O)(=O)Nc3ncc(Cl)s3)cc2Cl)C1 (centres unmarked) [Ex4-10] | human Nav1.7 (Homo sapiens, UniProt Q15858) | 10 |
| CC1(C)CN2CCCC2(CNc2ccc(S(=O)(=O)Nc3nccs3)cc2C(F)(F)F)C1 (single isomer, unassigned) [Ex8-23-A] | human Nav1.7 (Homo sapiens, UniProt Q15858) | 172 |
| O=S(=O)(Nc1nncs1)c1cc(Cl)c(NCC23CCCN2CCC3)cc1F [Ex1-5] | human Nav1.7 (Homo sapiens, UniProt Q15858) | 370 |
| CC1CCC2(CNc3ccc(S(=O)(=O)Nc4nccs4)cc3C(F)(F)F)CCCN12 (single isomer, unassigned) [Ex11-10-A] | human Nav1.7 (Homo sapiens, UniProt Q15858) | 22 |
| O=S(=O)(Nc1nccs1)c1cc(Cl)c(NC[C@]23CCCN2CC2(C3)OCCO2)cc1F (single isomer, unassigned) [Ex10-7-A] | human Nav1.7 (Homo sapiens, UniProt Q15858) | 10 |
| C[C@H]1CC[C@]2(CNc3cc(F)c(S(=O)(=O)Nc4nccs4)cc3Cl)CCCN12 (single isomer, unassigned) [Ex11-8-A] | human Nav1.7 (Homo sapiens, UniProt Q15858) | 35 |
| O=S(=O)(Nc1ncc(F)s1)c1ccc(NCC23CCCN2CC(F)C3)c(C(F)(F)F)c1 (single isomer, unassigned) [Ex9-12-A] | human Nav1.7 (Homo sapiens, UniProt Q15858) | 89 |
| CCc1cc(S(=O)(=O)Nc2nccs2)c(F)cc1NCC12CCCN1CCC2 [Ex18-7] | human Nav1.7 (Homo sapiens, UniProt Q15858) | 19 |
| O=S(=O)(Nc1nccs1)c1cc(Cl)c(NC[C@@]23CCCN2CC2(C3)OCCO2)cc1F (single isomer, unassigned) [Ex10-7-B] | human Nav1.7 (Homo sapiens, UniProt Q15858) | 32 |
| COc1ccc(C[C@@H]2CN3CCC[C@]3(CNc3cc(F)c(S(=O)(=O)Nc4nccs4)cc3Cl)C2)cc1 (single isomer, unassigned) [Ex15-10-B] | human Nav1.7 (Homo sapiens, UniProt Q15858) | 30 |
| O=S(=O)(Nc1ccc(F)cn1)c1cc(Cl)c(NCC23CCCN2CCC3)cc1F [Ex3-7] | human Nav1.7 (Homo sapiens, UniProt Q15858) | 320 |
| Cc1cc(S(=O)(=O)Nc2nccs2)c(F)cc1NCC12CCCN1CCC2 [Ex1-15] | human Nav1.7 (Homo sapiens, UniProt Q15858) | 34 |
| O=S(=O)(Nc1ncc(Cl)s1)c1cc(Cl)c(NCC23CCCN2CC2(C3)OCCO2)cc1F (single isomer, unassigned) [Ex10-9-A] | human Nav1.7 (Homo sapiens, UniProt Q15858) | 25 |
| CC1(C)CN2CCCC2(CNc2cc(F)c(S(=O)(=O)Nc3ncc(F)s3)cc2Cl)C1 (single isomer, unassigned) [Ex8-21-A] | human Nav1.7 (Homo sapiens, UniProt Q15858) | 35 |
| O=S(=O)(Nc1ncc(Br)s1)c1cc(Cl)c(NCC23CCCN2CCC3)cc1F [Ex1-13] | human Nav1.7 (Homo sapiens, UniProt Q15858) | 43 |
| O=S(=O)(Nc1ncc(Cl)s1)c1cc(Cl)c(NCC23CCCN2CC2(C3)OCCO2)cc1F (single isomer, unassigned) [Ex10-9-B] | human Nav1.7 (Homo sapiens, UniProt Q15858) | 108 |
| O=S(=O)(Nc1nccs1)c1cc(Cl)c(NCC23CCCN2CCC3)cc1Br [Ex12-5] | human Nav1.7 (Homo sapiens, UniProt Q15858) | 41 |
| N#Cc1cc(NCC23CCCN2CCC3)c(Cl)cc1S(=O)(=O)Nc1nccs1 [Ex12-6] | human Nav1.7 (Homo sapiens, UniProt Q15858) | 95 |
| Cc1csc(NS(=O)(=O)c2cc(Cl)c(NCC34CCCN3CC(C)(C)C4)cc2F)n1 (racemic) [Ex8-25] | human Nav1.7 (Homo sapiens, UniProt Q15858) | 32 |
| O=S(=O)(Nc1ncc(F)s1)c1ccc(NCC23CCCN2CC(F)C3)c(Cl)c1 (single isomer, unassigned) [Ex9-14-B] | human Nav1.7 (Homo sapiens, UniProt Q15858) | 176 |
| O=S(=O)(Nc1ncc(F)s1)c1ccc(NCC23CCCN2CC(F)C3)c(Cl)c1 (single isomer, unassigned) [Ex9-14-A] | human Nav1.7 (Homo sapiens, UniProt Q15858) | 144 |
| CCOC(=O)c1cnc(NS(=O)(=O)c2cc(Cl)c(NCC34CCCN3CCC4)cc2F)s1 [Ex1-16] | human Nav1.7 (Homo sapiens, UniProt Q15858) | 62 |
| N#Cc1cc(S(=O)(=O)Nc2nccs2)ccc1NCC12CCCN1CC(F)(F)C2 (racemic) [Ex6-6] | human Nav1.7 (Homo sapiens, UniProt Q15858) | 472 |
| CC1(C)CN2CCCC2(CNc2ccc(S(=O)(=O)Nc3nccs3)cc2C(F)(F)F)C1 (single isomer, unassigned) [Ex8-23-B] | human Nav1.7 (Homo sapiens, UniProt Q15858) | 31 |
| O=S(=O)(Nc1ncc(F)s1)c1ccc(NCC23CCCN2CC(F)C3)c(C(F)(F)F)c1 (single isomer, unassigned) [Ex9-12-B] | human Nav1.7 (Homo sapiens, UniProt Q15858) | 80 |
| CC1CCC2(CNc3ccc(S(=O)(=O)Nc4ncc(F)s4)cc3Cl)CCCN12 (single isomer, unassigned) [Ex11-12-B] | human Nav1.7 (Homo sapiens, UniProt Q15858) | 30 |
| COc1ccc(CC2CN3CCCC3(CNc3cc(F)c(S(=O)(=O)Nc4ncc(F)s4)cc3Cl)C2)cc1 (single isomer, unassigned) [Ex15-12-A] | human Nav1.7 (Homo sapiens, UniProt Q15858) | 8 |
| N#Cc1cc(S(=O)(=O)Nc2ncc(Cl)s2)c(F)cc1NCC12CCCN1CCC2 [Ex1-11] | human Nav1.7 (Homo sapiens, UniProt Q15858) | 35 |
| O=S(=O)(Nc1nccs1)c1cc(Cl)c(NCC23CCCCN2CCC3)cc1F (single isomer, unassigned) [Ex17-7-A] | human Nav1.7 (Homo sapiens, UniProt Q15858) | 113 |

* * *

- target: human Nav1.5 (Homo sapiens)
- Construct: expressed in transfected cells
- Sequence (Q14524 whole entry): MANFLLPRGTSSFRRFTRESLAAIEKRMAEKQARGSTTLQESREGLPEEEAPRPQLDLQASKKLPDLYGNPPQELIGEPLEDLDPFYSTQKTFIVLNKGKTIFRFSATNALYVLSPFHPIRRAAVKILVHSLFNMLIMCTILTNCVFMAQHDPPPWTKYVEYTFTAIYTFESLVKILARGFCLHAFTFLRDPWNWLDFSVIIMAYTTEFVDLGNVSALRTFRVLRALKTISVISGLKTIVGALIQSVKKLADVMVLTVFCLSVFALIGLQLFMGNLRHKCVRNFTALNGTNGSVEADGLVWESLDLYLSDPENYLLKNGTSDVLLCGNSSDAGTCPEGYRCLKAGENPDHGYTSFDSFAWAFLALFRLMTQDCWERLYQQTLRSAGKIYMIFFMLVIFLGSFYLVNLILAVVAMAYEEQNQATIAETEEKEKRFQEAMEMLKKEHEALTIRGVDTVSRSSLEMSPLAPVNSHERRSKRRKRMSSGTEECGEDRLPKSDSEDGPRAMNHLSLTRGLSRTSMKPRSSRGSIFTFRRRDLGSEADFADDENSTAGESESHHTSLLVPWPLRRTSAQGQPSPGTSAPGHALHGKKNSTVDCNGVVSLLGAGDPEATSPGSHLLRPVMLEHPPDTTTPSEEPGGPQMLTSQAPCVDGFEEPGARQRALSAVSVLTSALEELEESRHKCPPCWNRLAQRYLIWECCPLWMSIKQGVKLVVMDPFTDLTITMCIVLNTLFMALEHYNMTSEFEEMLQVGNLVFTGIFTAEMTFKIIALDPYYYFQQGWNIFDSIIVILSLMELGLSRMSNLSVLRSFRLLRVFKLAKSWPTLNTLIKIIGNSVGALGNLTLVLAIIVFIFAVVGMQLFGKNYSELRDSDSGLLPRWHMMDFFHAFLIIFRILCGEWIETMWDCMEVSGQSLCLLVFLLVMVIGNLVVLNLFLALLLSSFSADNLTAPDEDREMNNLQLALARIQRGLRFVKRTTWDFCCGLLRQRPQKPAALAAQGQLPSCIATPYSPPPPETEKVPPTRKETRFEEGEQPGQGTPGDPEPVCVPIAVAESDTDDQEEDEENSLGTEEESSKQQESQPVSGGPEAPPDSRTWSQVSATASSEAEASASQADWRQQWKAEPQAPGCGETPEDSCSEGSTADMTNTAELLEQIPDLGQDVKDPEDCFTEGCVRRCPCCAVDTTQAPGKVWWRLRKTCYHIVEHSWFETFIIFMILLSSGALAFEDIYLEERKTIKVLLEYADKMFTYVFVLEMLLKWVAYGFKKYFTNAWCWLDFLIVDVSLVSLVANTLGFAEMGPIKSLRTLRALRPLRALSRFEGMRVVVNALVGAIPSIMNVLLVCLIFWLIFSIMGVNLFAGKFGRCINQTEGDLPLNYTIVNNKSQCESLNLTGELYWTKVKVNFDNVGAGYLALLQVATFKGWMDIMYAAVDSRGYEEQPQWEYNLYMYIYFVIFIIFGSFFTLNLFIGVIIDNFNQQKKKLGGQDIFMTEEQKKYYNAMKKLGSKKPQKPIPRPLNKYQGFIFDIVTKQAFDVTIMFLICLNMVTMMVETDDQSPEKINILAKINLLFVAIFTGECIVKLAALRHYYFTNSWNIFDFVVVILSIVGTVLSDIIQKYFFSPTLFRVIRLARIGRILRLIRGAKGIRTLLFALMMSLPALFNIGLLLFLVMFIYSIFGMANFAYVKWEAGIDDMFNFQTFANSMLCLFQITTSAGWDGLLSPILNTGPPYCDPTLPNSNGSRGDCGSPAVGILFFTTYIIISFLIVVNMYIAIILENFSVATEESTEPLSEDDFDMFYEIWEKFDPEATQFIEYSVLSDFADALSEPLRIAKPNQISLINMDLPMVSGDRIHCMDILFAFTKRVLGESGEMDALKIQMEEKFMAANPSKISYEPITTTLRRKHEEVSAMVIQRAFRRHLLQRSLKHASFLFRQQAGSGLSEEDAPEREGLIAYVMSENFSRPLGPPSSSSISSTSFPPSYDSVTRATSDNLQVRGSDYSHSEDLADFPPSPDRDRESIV
- assayProtocol: PatchXpress automated patch-clamp, inactivated state block of Nav1.5 (selectivity)
- Type: cell-based
- testSettings: determined by PatchXpress measurement, HEK 293 cells
Mark Yes for ratio of Nav1.7 potency:Nav 1.5 potency under 800, No if at or over.

| compound | className |
| --- | --- |
| CC1(C)CN2CCCC2(CNc2ccc(S(=O)(=O)Nc3nccs3)cc2C(F)(F)F)C1 (single isomer, unassigned) [Ex8-23-B] | No |
| CC1(C)CN2CCCC2(CNc2ccc(S(=O)(=O)Nc3nccs3)cc2C(F)(F)F)C1 (single isomer, unassigned) [Ex8-23-A] | Yes |
| O=S(=O)(Nc1ncc(F)s1)c1ccc(NCC23CCCN2CC(F)C3)c(Cl)c1 (single isomer, unassigned) [Ex9-14-B] | Yes |
| CC1CCC2(CNc3ccc(S(=O)(=O)Nc4nccs4)cc3C(F)(F)F)CCCN12 (single isomer, unassigned) [Ex11-10-B] | Yes |
| CC1CCC2(CNc3ccc(S(=O)(=O)Nc4ncc(F)s4)cc3Cl)CCCN12 (single isomer, unassigned) [Ex11-12-B] | No |
| CCc1cc(S(=O)(=O)Nc2nccs2)c(F)cc1NC[C@@]12CCCN1C[C@H](Cc1ccc(OC)cc1)C2 (single isomer, unassigned) [Ex18-5-A] | Yes |
| O=S(=O)(Nc1cccc(F)n1)c1cc(F)c(NCC23CCCN2CCC3)cc1F [Ex2-4] | Yes |
| CC1CN2CCCC2(CNc2ccc(S(=O)(=O)Nc3nccs3)cc2Cl)C1 (stereo not shown) [Ex4-11] | No |
| Cc1cc(S(=O)(=O)Nc2nccs2)c(F)cc1NCC12CCCN1CCC2 [Ex1-15] | No |
| N#Cc1cc(S(=O)(=O)Nc2cccc(F)n2)ccc1NCC12CCCN1CCC2 [Ex2-3] | Yes |
| COc1ccc(CC2CN3CCCC3(CNc3cc(F)c(S(=O)(=O)Nc4ncc(F)s4)cc3Cl)C2)cc1 (single isomer, unassigned) [Ex15-12-B] | Yes |
| O=S(=O)(Nc1ncc(F)s1)c1ccc(NCC23CCCN2CC2(CC2)C3)c(C(F)(F)F)c1 (single isomer, unassigned) [Ex13-12-A] | Yes |
| O=S(=O)(Nc1ncc(Br)s1)c1cc(Cl)c(NCC23CCCN2CCC3)cc1F [Ex1-13] | No |
| O=S(=O)(Nc1nncs1)c1cc(Cl)c(NCC23CCCN2CCC3)cc1F [Ex1-5] | Yes |
| CC1CCC2(CNc3ccc(S(=O)(=O)Nc4ncc(F)s4)cc3Cl)CCCN12 (single isomer, unassigned) [Ex11-12-A] | No |
